test system: SF-268; assay: NCI tumour cell line growth inhibition, 48 h
Active and inactive are the calls of the source. Rule as the data show it: active = GI50 up to about 1.1 µM and inactive = higher.
VALUE KIND: GI50

CC1(C)CC23C(=O)N(c4ccccc4)C(Nc4ccccc4)=NC2=CC(C#N)=C(C#N)C3O1 (configuration not stated) | > 100 µM (inactive)
COc1cc(/C=C(\NC(=O)c2ccccc2)c2nc3ccc4c(c3[nH]2)C(=O)c2ccccc2C4=O)cc(OC)c1OC | 8.91 µM (inactive)
CC(=O)n1c2c(c(=O)n1-c1ccccc1)[S+]([O-])CCC2 (configuration not stated) | > 100 µM (inactive)
Cc1cc(Cl)ccc1N1C(=O)C(=O)C(c2nc3ccccc3s2)C(=O)C1=O | > 100 µM (inactive)
CC(CC(=O)O)(CC(=O)O)c1ccccc1 | > 100 µM (inactive)

For every record below, what is its GI50?
1. Cc1[nH]c(-c2ccccc2)c(-c2ccc(Cl)cc2)c1C(=O)ONC(=O)c1ccccc1
2. CC[N+](C)(C)c1ccc(C(=C2C=CC(=[N+](C)C)C=C2)c2ccc(N(C)C)cc2)cc1
3. CCCCC(=C=C1CCCCC1O)C1CCCN1C(=O)OC(C)(C)C (configuration not stated)
4. COC(=O)[C@@H]1C[C@@]2(C3C=CN(C(=O)C(F)(F)F)C=C3)c3ccccc3N(C(=O)C(F)(F)F)[C@H]2N1C(=O)OC
5. C[N+](C)(C)CC(=O)N/N=C/c1oc(-c2c(O)ccc3ccccc23)c(-c2c(O)ccc3ccccc23)c1[N+](=O)[O-]
6. Cc1nn(C)c2c1C(=O)N(C)CC(=O)N2C

### Response
["2.34 µM (inactive)", "10.8 µM (inactive)", "17.3 µM (inactive)", "43 µM (inactive)", "12.4 µM (inactive)", "> 100 µM (inactive)"]

For every record below, what is its GI50?
1. CCOC(=O)C(=Cn1c(=S)[nH]c2ccc([N+](=O)[O-])cc21)C(=O)OCC
2. O=C(O)C1CC(O)CN1 (configuration not stated)
3. COC1OC(CO)C(O)C(OC(C)=O)C1NC(=O)N(CCCl)N=O (configuration not stated)
4. CN(CCCN1CCCC1)CCCN(C)C(=O)Cc1ccc(Cl)c(Cl)c1

### Response
1: > 100 µM (inactive); 2: > 100 µM (inactive); 3: 21.3 µM (inactive); 4: 8.87 µM (inactive)

For every record below, what is its GI50?
1. O=c1c2cccnc2[nH]c2ccc3scnc3c12
2. O=C1CC2C=CC1C2CO (configuration not stated)
3. CCSc1[nH]c(NC(=S)NC(=O)c2ccccc2Cl)c(C(N)=O)c1C(N)=O
4. CC1(C)CC(=O)C2=C(C1)NC(SCC(=O)O)=C(C#N)C2c1ccc(Br)cc1 (configuration not stated)
5. O=[PH](O)c1cccnc1
6. N#Cc1c(O)c(C=O)c(=O)n2c1[nH]c1ccccc12
7. O=C(c1nsc(Cl)c1Cl)N1CCCCC1

### Response
> 10 µM (inactive)
> 100 µM (inactive)
> 10 µM (inactive)
> 100 µM (inactive)
> 100 µM (inactive)
> 100 µM (inactive)
> 100 µM (inactive)

----------
system: SNB-75; experiment: NCI tumour cell line growth inhibition, 48 h
Active and inactive are the calls of the source. Cut-off read from the data, not from the text of the source: active = GI50 up to about 1.1 µM and inactive = higher.
Returns: one label drawn from active, inactive

These recorded examples may help you get a feel for the data.
CN(C)CCOc1ccc(-c2c(Oc3ccc(Cl)cc3)c(=O)oc3ccccc23)cc1 | inactive
C(=C\c1ccco1)/c1cccc(/C=C/c2ccco2)n1 | inactive
CCOC(=O)c1c[nH]c2cc3c(cc2c1=O)CCS3(=O)=O.CCOC(=O)c1c[nH]c2ccc3c(c2c1=O)S(=O)(=O)CC3 | inactive
C=CCOCCC(CC=C)C(=O)CC(=O)OC (stereo not drawn) | inactive

### Prompt Hi, sorry to bother you, what did the test record for CC(=O)O[C@H]1C(=O)[C@@]2(C)[C@H]([C@H](OC(=O)c3ccccc3)[C@]3(O)C[C@H](OC(=O)[C@H](OC(=O)OCCC(O)CO)[C@@H](NC(=O)c4ccccc4)c4ccccc4)C(C)=C1C3(C)C)[C@]1(OC(C)=O)CO[C@@H]1C[C@@H]2O (stereo partly drawn) ?
### Response active

### Prompt Hi, sorry to bother you, what did the test record for CCOC(=O)/C(=C\NC(C)(C)C)c1nc2ccccc2o1 ?
### Response inactive

### Prompt Hi, sorry to bother you, what did the test record for Cc1ccc(C(=O)Nc2ccc(CP(=O)(O)O)cc2CP(=O)(O)O)cc1NC(=O)c1cccc(N)c1 ?
### Response inactive

### Prompt Hi, sorry to bother you, what did the test record for CC(=O)SCCC1c2[nH]c3ccccc3c2CCN1O (stereo not drawn) ?
### Response inactive

### Prompt Hi, sorry to bother you, what did the test record for CCOP(=O)(CN=C(c1ccccc1)c1ccccc1)OCC ?
### Response inactive

### Prompt Hi, sorry to bother you, what did the test record for C=C(/C=C/C=C(\CO)CCC=C(C)C)[C@H]1CCC2([C@H](CCCO)/C(=C(/C)C=O)CC[C@]2(C)O)[C@H]1O (stereo partly drawn) ?
### Response inactive

### Prompt Hi, sorry to bother you, what did the test record for COc1ccccc1CCc1cc(OC)c(OC)c(OC)c1 ?
### Response inactive

### Prompt Hi, sorry to bother you, what did the test record for CC(CC(=O)O)(CC(=O)O)c1ccccc1 ?
### Response inactive

----------
system: Hs-578T; assay: NCI tumour cell line growth inhibition, 48 h
The source made the active and inactive calls. Cut-off read from the data, not from the text of the source: active = GI50 up to about 1.1 µM and inactive = higher.
Returns: one label drawn from class 1 (active), class 0 (inactive)

O=S(=O)(N/C(=N\O)Nc1ccc(Cl)cc1)c1cc(C(F)(F)F)cc(C(F)(F)F)c1 | class 0

### Prompt Hi, sorry to bother you, what did the test record for C[C@H]1[C@H](C)CC[C@]2(C(=O)OC3OC(CO)C(O)C(O)C3O)CC[C@]3(C)C(=CC[C@@H]4[C@@]5(C)C[C@H]6OC(=O)c7cc(O)c(O)c(O)c7-c7c(cc(O)c(O)c7O)C(=O)O[C@@H]6C(CO)(CO)[C@@H]5CC[C@]43C)[C@H]12 (some centres not stated) ?
### Response class 0

### Prompt Hi, sorry to bother you, what did the test record for C[C@]12CC/C(=N\O)C=C1CC[C@@H]1[C@@H]2CC[C@]2(C)C(=N/O)/C(=C/c3cccnc3)C[C@@H]12 ?
### Response class 0

### Prompt Hi, sorry to bother you, what did the test record for CN(C)CCCOc1nc2c(c(=O)n(C)c(=O)n2C)n1C.SC1=NC=NC2=NC=NC12 ?
### Response class 0

### Prompt Hi, sorry to bother you, what did the test record for C/C=C/COc1cc(NC(=S)OC(C)C)ccc1Cl.C/C=C\COc1cc(NC(=S)OC(C)C)ccc1Cl ?
### Response class 0

### Prompt Hi, sorry to bother you, what did the test record for CC(C)(C)C1=C(Br)C(Br)(C(C)(C)C)OP1(=O)c1ccccc1 (configuration not stated) ?
### Response class 0

### Prompt Hi, sorry to bother you, what did the test record for CCOCC(=O)N[C@H]1CCc2cc(OC)c(OC)c(OC)c2-c2ccc(SC)c(=O)cc21 ?
### Response class 1

----------
system: SNB-19; assay: NCI tumour cell line growth inhibition, 48 h
Active and inactive are the calls of the source. No stated cut-off is given here; in the data, active = GI50 up to about 1.1 µM and inactive = higher.
Returns: one label drawn from active, inactive

O=C1CC2C=CC1C2CO (stereo unspecified) | inactive
CCOC(=O)C1(C/C=C/CBr)CCc2ccccc2C1=O (stereo unspecified) | inactive
O=C1CC2(CCCc3sccc32)C(=O)N1 (stereo unspecified) | inactive
NS(=O)(=O)c1ccc(Nc2c3ccccc3nc3c(C(=O)NC(CO)(CO)CO)cccc23)cc1 | active
O=[N+]([O-])c1ccc(-c2cnc3ccccn23)cc1 | inactive
C(=C\c1ccco1)/c1cccc(/C=C/c2ccco2)n1 | inactive
CC(=O)Oc1ccc2c(c1)oc1c3ccc(OC(C)=O)cc3n(C)c(=O)c21 | inactive
CCN1CC2(C)CC[C@@H](OC)C34[C@@H]2[C@H](OC(C)=O)C2(OCO[C@@]25C[C@H](OC)C2C[C@]3(O)[C@@H]5[C@H]2O)[C@H]14 | inactive

### Prompt Hi, sorry to bother you, what did the test record for Cc1ccc(-n2c(C)nc3c2C(=O)c2ccccc2C3=O)cc1 ?
### Response inactive

### Prompt Hi, sorry to bother you, what did the test record for CN(C)CC1CCC/C(=C\c2ccc(Cl)c(Cl)c2)C1=O (stereo unspecified) ?
### Response inactive

### Prompt Hi, sorry to bother you, what did the test record for N#CC1=C(O)NC(O)=C(C#N)C1c1c(Cl)cccc1Cl ?
### Response inactive

----------
Exercise: state measured GI50 for each of the compounds provided.
system: SK-MEL-28; assay: NCI tumour cell line growth inhibition, 48 h
Activity calls are given as the source filed them. Cut-off read from the data, not from the text of the source: active = GI50 up to about 1.1 µM and inactive = higher.

For every record below, what is its GI50?
1. Cn1nc(-c2ccccc2)c2c(/C=C/c3ccc(Cl)cc3)onc2c1=O
2. Nc1ccc(N(S(=O)(=O)c2ccccc2)S(=O)(=O)c2ccccc2)c(Cl)c1
3. Cc1ccc(-n2c(C)nc3c2C(=O)c2ccccc2C3=O)cc1
4. C/C(=N/S(=O)(=O)c1ccc(Cl)c(Cl)c1)OCC(C)(C)C
5. CCOP(=O)(CN=C(c1ccccc1)c1ccccc1)OCC
6. CN(C)CCCOc1nc2c(c(=O)n(C)c(=O)n2C)n1C.SC1=NC=NC2=NC=NC12
7. CC(=O)NC(Cc1c[nH]cn1)C(=O)N1CCCC1C(N)=O (stereo not given)
8. C=CCC12CC(=O)C=C1CCC1(C2)OCCO1 (stereo not given)

### Response
1. 51.3 µM (inactive)
2. 68.9 µM (inactive)
3. 52.6 µM (inactive)
4. > 100 µM (inactive)
5. > 100 µM (inactive)
6. 55.5 µM (inactive)
7. > 100 µM (inactive)
8. > 100 µM (inactive)

For every record below, what is its GI50?
1. CCCCN(C(=O)c1ccccc1)C1CCC(=O)c2[nH]c3ccccc3c21 (stereo not given)
2. OC1CCCCCCCCCCC1SCCCCl (stereo not given)
3. Clc1ccc(SC(/C=C/NNC2=NN=C(c3ccccc3)C(c3ccccc3)N2)c2ccccc2)cc1 (stereo not given)

### Response
90.2 µM (inactive)
> 100 µM (inactive)
20.8 µM (inactive)
